Target: rat CB-1 receptor (Rattus norvegicus)
Construct: The tissue obtained from the brain of SD rats was homogenized; from tissue; host or cells: brain of SD rats (membrane pellet of homogenate)
Test: rat CB-1 receptor binding protocol with [3H]CP-55940
Conditions: [3H]CP-55940, brain tissue of SD rats, 30 °C for 60 min; read-out: IC50
pIC50: −log10 of the molar value.
test.readout: pIC50

In the examples that follow, each entry is paired with its recorded pIC50.
FC(F)(F)C1(c2nnc(-c3nc(-c4ccccc4Cl)n(-c4ccc(Br)cc4)c3Cn3cncn3)o2)CC1 [Example 79] = 8.16
CCc1c(-c2nnc(C3CCC3)o2)nc(-c2ccc(Cl)cc2Cl)n1-c1ccc(Br)cc1 [Example 23] = 7.62
CCc1c(-c2nnc(C(C)(C)C)s2)nc(-c2ccc(Cl)cc2Cl)n1-c1ccc(Br)cc1 [Example 110] = 8.72
Cc1c(-c2nnc(C(C)(C)C)s2)nc(-c2ccccc2Cl)n1-c1ccc(Br)cc1 [Example 141] = 7.97
Cc1c(-c2nnc(C3CCCCC3)s2)nc(-c2ccc(Cl)cc2Cl)n1-c1ccc(Cl)cc1 [Example 91] = 7.34
Cc1c(-c2ncc(C(C)(C)C)o2)nc(-c2ccc(Cl)cc2Cl)n1-c1ccc(Br)cc1 [Example 187] = 7.77
Cc1c(-c2nnc(C3(C(F)(F)F)CCC3)o2)nc(-c2ccc(Cl)cc2Cl)n1-c1ccc(Br)cc1 [Example 47] = 7.56
CCCCc1cnc(-c2nc(-c3ccc(Cl)cc3Cl)n(-c3ccc(Cl)cc3)c2C)o1 [Example 182] = 7.94
CCc1c(-c2ncc(C(C)(C)C)o2)nc(-c2ccc(Cl)cc2Cl)n1-c1ccc(Br)cc1 [Example 188] = 8.05
FC(F)(F)C1(c2nnc(-c3nc(-c4ccc(Cl)cc4Cl)n(-c4ccc(Cl)cc4)c3Cn3cncn3)o2)CC1 [Example 89] = 8.94

P. Cc1c(-c2nnc(C3CCCCC3)s2)nc(-c2ccc(Cl)cc2Cl)n1-c1ccc(Br)cc1 [Example 108]
Q. CCCc1c(-c2nnc(C(C)(C)C)s2)nc(-c2ccc(Cl)cc2Cl)n1-c1ccc(Br)cc1 [Example 119]
Query: Could you please tell me which of these two has the higher pIC50: P or Q ? Indicate your choice by writing its label.
Reply: Q
(Q: 7.87, P: 7.25)

====

Target: rat CB-1 receptor (Rattus norvegicus)
Construct: The tissue obtained from the brain of SD rats was homogenized; from tissue; host or cells: brain of SD rats (membrane pellet of homogenate)
Experiment: rat CB-1 receptor binding protocol with [3H]CP-55940
Conditions: [3H]CP-55940, brain tissue of SD rats, 30 °C for 60 min; read-out: IC50
test.readout: IC50 (nM)

In the examples that follow, each entry is paired with its recorded IC50.
CCCc1c(-c2nnc(C3CCC3)s2)nc(-c2ccc(Cl)cc2Cl)n1-c1ccc(Cl)cc1 = 13.5
CCCC(C)c1nnc(-c2nc(-c3ccc(Cl)cc3Cl)n(-c3ccc(Cl)cc3)c2CC)s1 (centres unmarked) = 12.9

a. CCCCC(C)c1nnc(-c2nc(-c3ccc(Cl)cc3Cl)n(-c3ccc(Cl)cc3)c2CC)o1 (centres unmarked)
b. Cc1c(-c2nnc(C3CCCCCC3)s2)nc(-c2ccc(Cl)cc2Cl)n1-c1ccc(Cl)cc1
Query: Could you please tell me which of these two has the higher IC50: a or b ? Indicate your choice by writing its label.
Reply: b

====

Biological target: rat CB-1 receptor (Rattus norvegicus, UniProt P20272)
Construct: The tissue obtained from the brain of SD rats was homogenized; from tissue; host or cells: brain of SD rats (membrane pellet of homogenate)
Sequence (P20272 whole entry): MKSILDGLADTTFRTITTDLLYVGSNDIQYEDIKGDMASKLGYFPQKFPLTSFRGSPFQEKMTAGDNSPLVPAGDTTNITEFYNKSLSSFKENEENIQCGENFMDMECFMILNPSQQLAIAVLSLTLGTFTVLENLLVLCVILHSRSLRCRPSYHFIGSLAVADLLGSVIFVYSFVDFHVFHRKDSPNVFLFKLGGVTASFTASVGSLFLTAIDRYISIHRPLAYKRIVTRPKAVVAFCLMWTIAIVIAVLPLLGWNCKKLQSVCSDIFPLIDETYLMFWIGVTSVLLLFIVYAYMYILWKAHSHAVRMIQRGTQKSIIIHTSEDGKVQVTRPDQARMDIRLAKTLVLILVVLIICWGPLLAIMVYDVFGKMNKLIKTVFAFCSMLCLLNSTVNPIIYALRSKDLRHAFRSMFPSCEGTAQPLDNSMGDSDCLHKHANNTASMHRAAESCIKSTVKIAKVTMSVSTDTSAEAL
Test: rat CB-1 receptor binding protocol with [3H]CP-55940
Conditions: [3H]CP-55940, brain tissue of SD rats, 30 °C for 60 min; read-out: IC50
pIC50: −log10 of the molar value.
test.readout: pIC50

CC(C)(C)c1nnc(-c2nc(-c3ccc(Cl)cc3Cl)n(-c3ccc(Cl)cc3)c2C2CC2)o1 = 7.10

I. CCc1oc(-c2nc(-c3ccc(Cl)cc3Cl)n(-c3ccc(Cl)cc3)c2C)nc1C
II. CCc1c(-c2nnc(C(C)(C)C)o2)nc(-c2ccc(Cl)cc2Cl)n1-c1ccc(Br)cc1
III. CCCC(C)c1nnc(-c2nc(-c3ccc(Cl)cc3Cl)n(-c3ccc(Cl)cc3)c2C)s1 (stereo not shown)
Query: Rank entries according to their pIC50, from the largest number down. Respond with the label ranking, as requested.
Reply: II, III, I
(II: 8.50, III: 7.90, I: 7.11)
